Ratio IC50 for assorted molecules
- TARGET OF ASSAY: UniProt:O43175
- Sequence (whole entry): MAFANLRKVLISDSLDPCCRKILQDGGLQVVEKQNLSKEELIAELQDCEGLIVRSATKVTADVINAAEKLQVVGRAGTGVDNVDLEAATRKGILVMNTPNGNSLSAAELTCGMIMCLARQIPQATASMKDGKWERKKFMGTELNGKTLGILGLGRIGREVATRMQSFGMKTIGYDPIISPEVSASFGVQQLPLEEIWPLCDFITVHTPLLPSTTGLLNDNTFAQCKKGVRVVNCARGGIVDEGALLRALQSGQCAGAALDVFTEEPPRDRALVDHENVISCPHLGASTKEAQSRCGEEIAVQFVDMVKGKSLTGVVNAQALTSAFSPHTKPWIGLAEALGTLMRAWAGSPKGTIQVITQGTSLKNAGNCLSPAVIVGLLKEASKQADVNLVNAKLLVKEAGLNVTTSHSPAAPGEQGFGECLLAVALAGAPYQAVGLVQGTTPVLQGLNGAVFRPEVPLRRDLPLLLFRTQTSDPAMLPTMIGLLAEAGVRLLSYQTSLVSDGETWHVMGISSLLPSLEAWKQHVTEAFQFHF
- EXPERIMENT NOTES: Ratio of IC50 for inhibition of PHGDH in human HL60 cells assessed as reduction in cell viability in serine repleted medium to IC50 for inhibition of PHGDH in human HL60 cells assessed as reduction in cell viability in serine depleted medium
- Type: cell-based
Hey, just send me the number, nothing else.

Data request: I'd like to know its Ratio IC50. The molecule in question is `O=C(C(=S)N1CCOCC1)c1ccc(I)cc1`
Data returned: 2.8

Data request: I'd like to know its Ratio IC50. The molecule in question is `O=C(C(=S)N1CCOCC1)c1ccc([N+](=O)[O-])cc1`
Data returned: 2.9

Data request: I'd like to know its Ratio IC50. The molecule in question is `O=C(C(=S)N1CCOCC1)c1ccc(Br)cc1`
Data returned: 2.2

Data request: I'd like to know its Ratio IC50. The molecule in question is `O=C(C(=S)N1CCOCC1)c1ccc(Cl)cc1`
Data returned: 3.3

Data request: I'd like to know its Ratio IC50. The molecule in question is `O=C(C(=S)N1CCOCC1)c1ccc(F)cc1`
Data returned: 1.5
